assay: chemical genetic growth profiling, strain panel (AID 1159580);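 also: tested at 20 µM; growth read once vehicle control cultures reached saturation at 30 °C; 1 = growth at the plate median or of vehicle wells; lower values mean less growth of the strain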; details: S. cerevisiae deletion strains, growth OD, locus YBR229C, strain ROT2, hits give low values
Screen size: about 5,500 compounds; about 2,000 (36%) were called active. Not shown: some 18% with an inconclusive outcome. The list shows a part of the results.
Reported normalized growth values are given for each entry in this list.

Compound	normalized growth
CN=C1CN(O)C(c2ccccc2)=c2cc(Cl)ccc2=N1	0.969 (inactive)
CC(=O)c1ccc(-c2ccc(C(C)=O)cc2)cc1	0.999 (inactive)
CCCN(CCC)C(=O)C(CCC(=O)O)NC(=O)c1ccccc1 (configuration not stated)	0.999 (inactive)
Cc1ccc(C(C)C)cc2c(C)ccc1-2	1 (inactive)
O=C(O)CCC(=O)c1ccc(-c2ccccc2)cc1	0.986 (inactive)
NCc1ccc(S(N)(=O)=O)cc1	0.986 (inactive)
CC(C)(C)c1nc(N)sc1Br	0.998 (inactive)
CO[C@@H]1[C@@H](O[C@@H]2O[C@H](C)[C@@H](O[C@H]3C[C@@](C)(O)[C@H](O)[C@H](C)O3)[C@H](N(C)C)[C@H]2O)[C@@H](CC=O)C[C@@H](C)[C@@H](O[C@H]2CC[C@H](N(C)C)[C@@H](C)O2)/C=C/C=C/C[C@H](C)OC(=O)C[C@H]1O	1.02 (inactive)
CC[C@@H]1[C@@H](O)N2C3C[C@H]1C1C(O)[C@]4(C[C@@H]12)c1ccccc1N(C)[C@@H]34 (some centres not stated)	0.991 (inactive)
CCCNC(C)C(=O)Nc1ccccc1C (configuration not stated)	1.01 (inactive)
C/C(=N/NC1=NCCN1)c1ccc(F)cc1	0.993 (inactive)
C/C(=N/OC(=O)c1ccc(Cl)cc1)c1ccc(F)cc1	0.96 (inactive)
